Target: recombinant human aggrecanase 1 (ADAMTS-4) (Homo sapiens, UniProt O75173)
Construct: ADAMTS-4 aminoacids F213-A579 with C-terminal tag
Sequence (O75173 213-579): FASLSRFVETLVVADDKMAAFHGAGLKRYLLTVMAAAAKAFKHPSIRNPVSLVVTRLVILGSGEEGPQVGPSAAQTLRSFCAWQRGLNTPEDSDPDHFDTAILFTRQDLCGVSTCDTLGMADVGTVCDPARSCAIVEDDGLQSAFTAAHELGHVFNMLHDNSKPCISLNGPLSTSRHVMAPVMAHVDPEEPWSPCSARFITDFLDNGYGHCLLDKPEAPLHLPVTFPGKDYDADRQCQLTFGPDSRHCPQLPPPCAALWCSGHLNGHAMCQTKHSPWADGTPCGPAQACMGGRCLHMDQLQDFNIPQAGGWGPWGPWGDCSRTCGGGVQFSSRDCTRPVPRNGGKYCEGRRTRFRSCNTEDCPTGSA
Experiment: InviLISA Aggrecanase activity assay, aggrecanase 1
Where a name gives a salt, the structure may show the parent alone.
Quantity kind: IC50 (nM)

[[record]]
compound = "COc1ccc(-c2oc3ccc(NC(C)=N)cc3c(=O)c2O)cc1 [Example 12, hydrochloride monohydrate]"
measured = 2700

[[record]]
compound = "CC(=N)Nc1ccc2oc(-c3ccc(O)c(O)c3)c(O)c(=O)c2c1 [Example 10, hydrochloride]"
measured = 610

[[record]]
compound = "N=C(CC1CC1)Nc1ccc2oc(-c3ccc(-n4ccnc4)cc3)c(O)c(=O)c2c1 [Example 6, dihydrochloride monohydrate]"
measured = 1610


---

Below, each entry is listed alongside its reported inhibition at 10 µM.
Target: recombinant human aggrecanase 1 (ADAMTS-4) (Homo sapiens, UniProt O75173)
Construct: ADAMTS-4 aminoacids F213-A579 with C-terminal tag; purchased Invitek GmbH, Berlin
Test: InviLISA Aggrecanase activity assay, aggrecanase 1
Format: biochemical
Settings: inhibitors tested at 10 μM final concentration
Counter-ions that a name gives are not always drawn.
Quantity kind: inhibition at 10 µM (%)

[[record]]
compound = "COc1ccc(-c2oc3ccc(NC(=N)CO)cc3c(=O)c2O)cc1 [Example 13, hydrochloride monohydrate]"
quantity_kind = "inhibition at 10 µM"
measured = 0

[[record]]
compound = "COCCC(=N)Nc1ccc2oc(-c3ccc(-n4ccnc4)cc3)c(O)c(=O)c2c1"
quantity_kind = "inhibition at 10 µM"
measured = 31

[[record]]
compound = "CC(=N)Nc1ccc2oc(-c3ccc4c(c3)OCO4)c(O)c(=O)c2c1 [Example 16, hydrochloride]"
quantity_kind = "inhibition at 10 µM"
measured = 32

[[record]]
compound = "N=C(CC1CC1)Nc1ccc2oc(-c3ccc4c(c3)OCO4)c(O)c(=O)c2c1"
quantity_kind = "inhibition at 10 µM"
measured = 0

[[record]]
compound = "COc1ccc(C(=N)Nc2ccc3oc(-c4ccc(OC)cc4)c(O)c(=O)c3c2)cc1 [Example 14, hydrochloride]"
quantity_kind = "inhibition at 10 µM"
measured = 0

[[record]]
compound = "CC(=N)Nc1ccc2oc(-c3ccc4c(c3)OCO4)cc(=O)c2c1 [Example 4, hydrochloride]"
quantity_kind = "inhibition at 10 µM"
measured = 40

[[record]]
compound = "COCCC(=N)Nc1ccc2oc(-c3ccc4c(c3)OCO4)c(O)c(=O)c2c1 [Example 19, hydrochloride]"
quantity_kind = "inhibition at 10 µM"
measured = 0

[[record]]
compound = "CC(=N)Nc1ccc2oc(-c3ccc(-n4ccnc4)cc3)c(O)c(=O)c2c1 [Example 5, hydrochloride]"
quantity_kind = "inhibition at 10 µM"
measured = 30

[[record]]
compound = "COc1ccc(-c2oc3ccc(NC(C)=N)cc3c(=O)c2O)cn1"
quantity_kind = "inhibition at 10 µM"
measured = 0

[[record]]
compound = "N=C(CC1CC1)Nc1ccc2oc(-c3ccc(O)cc3)c(O)c(=O)c2c1 [Example 11, hydrochloride]"
quantity_kind = "inhibition at 10 µM"
measured = 30

[[record]]
compound = "CC(=N)Nc1ccc2oc(-c3ccc(S(C)(=O)=O)cc3)c(O)c(=O)c2c1 [Example 9, hydrochloride]"
quantity_kind = "inhibition at 10 µM"
measured = 20

[[record]]
compound = "CC(=N)Nc1ccc2oc(-c3ccc4c(c3)CCO4)c(O)c(=O)c2c1 [Example 15, hydrochloride]"
quantity_kind = "inhibition at 10 µM"
measured = 10

[[record]]
compound = "CC(=N)Nc1ccc2oc(-c3ccc(F)cc3)cc(=O)c2c1"
quantity_kind = "inhibition at 10 µM"
measured = 40

[[record]]
compound = "CC(=N)Nc1ccc2oc(-c3ccccc3)cc(=O)c2c1 [Example 1, hydrochloride]"
quantity_kind = "inhibition at 10 µM"
measured = 10

[[record]]
compound = "COc1ccc(-c2cc(=O)c3cc(NC(C)=N)ccc3o2)cc1 [Example 2, hydrochloride monohydrate]"
quantity_kind = "inhibition at 10 µM"
measured = 30


---

# Lookup of reported IC50 keyed by entry
Molecular target: recombinant human aggrecanase 2 (ADAMTS-5) (Homo sapiens)
Construct: ADAMTS-5 aminoacids S262-G625 with C-terminal tag
Sequence (Q9UNA0 262-625): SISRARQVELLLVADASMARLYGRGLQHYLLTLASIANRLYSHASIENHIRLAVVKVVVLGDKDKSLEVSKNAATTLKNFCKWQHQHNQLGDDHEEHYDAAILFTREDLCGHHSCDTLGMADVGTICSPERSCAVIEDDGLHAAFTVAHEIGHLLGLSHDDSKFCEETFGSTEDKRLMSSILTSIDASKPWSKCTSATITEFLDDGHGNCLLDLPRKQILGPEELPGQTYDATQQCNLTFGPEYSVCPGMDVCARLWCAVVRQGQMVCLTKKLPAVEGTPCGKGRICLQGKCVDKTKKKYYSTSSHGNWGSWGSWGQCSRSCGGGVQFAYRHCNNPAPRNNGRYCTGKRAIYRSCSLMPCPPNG
Assay: InviLISA Aggrecanase activity assay, aggrecanase 2
Where a name gives a salt, the structure may show the parent alone.
Quantity kind: IC50 (µM)

[[record]]
compound = "COc1ccc(-c2oc3ccc(NC(C)=N)cc3c(=O)c2O)cc1 [Example 12, hydrochloride monohydrate]"
measured = 1.12

[[record]]
compound = "COc1ccc(-c2oc3ccc(NC(C)=N)cc3c(=O)c2O)cn1 [Example 20]"
measured = 2.2

[[record]]
compound = "CC(=N)Nc1ccc2oc(-c3ccc(F)cc3)cc(=O)c2c1 [Example 3]"
measured = 10

[[record]]
compound = "COCCC(=N)Nc1ccc2oc(-c3ccc(-n4ccnc4)cc3)c(O)c(=O)c2c1 [Example 7]"
measured = 2.4

[[record]]
compound = "N=C(CC1CC1)Nc1ccc2oc(-c3ccc4c(c3)OCO4)c(O)c(=O)c2c1 [Example 18]"
measured = 4.3

[[record]]
compound = "CC(=N)Nc1ccc2oc(-c3ccc(O)c(O)c3)c(O)c(=O)c2c1 [Example 10, hydrochloride]"
measured = 3.5

[[record]]
compound = "COc1ccc(-c2oc3ccc(NC(=N)CO)cc3c(=O)c2O)cc1 [Example 13, hydrochloride monohydrate]"
measured = 2.8

[[record]]
compound = "CC(=N)Nc1ccc2oc(-c3ccc(S(C)(=O)=O)cc3)c(O)c(=O)c2c1 [Example 9, hydrochloride]"
measured = 11.5


---

Items are presented alongside their recorded ED100 4 hrs.
Test system: Zymosan-induced mechanical hyperalgesia
Assay: Zymosan-induced mechanical hyperalgesia (Randall-Selitto), model of inflammatory pain
Type: in vivo, rat
Conditions: rat, OS, 4 hrs after zymosan; NC = not calculable
Structures can show the parent of a compound that is named as a salt.
Quantity kind: ED100 4 hrs (mg/kg)

[[record]]
molecule = "COc1ccc(-c2cc(=O)c3cc(NC(C)=N)ccc3o2)cc1 [Example 2, hydrochloride monohydrate]"
quantity_kind = "ED100 4 hrs"
measured = 18

[[record]]
molecule = "CC(=N)Nc1ccc2oc(-c3ccc(F)cc3)cc(=O)c2c1 [Example 3]"
quantity_kind = "ED100 4 hrs"
measured = 24

[[record]]
molecule = "CC(=N)Nc1ccc2oc(-c3ccccc3)cc(=O)c2c1 [Example 1, hydrochloride]"
quantity_kind = "ED100 4 hrs"
measured = 19

[[record]]
molecule = "CC(=N)Nc1ccc2oc(-c3ccc4c(c3)OCO4)cc(=O)c2c1 [Example 4, hydrochloride]"
quantity_kind = "ED100 4 hrs"
measured = 35


---

Target: recombinant human aggrecanase 2 (ADAMTS-5) (Homo sapiens)
Construct: ADAMTS-5 aminoacids S262-G625 with C-terminal tag; purchased Invitek GmbH, Berlin
Sequence (Q9UNA0 262-625): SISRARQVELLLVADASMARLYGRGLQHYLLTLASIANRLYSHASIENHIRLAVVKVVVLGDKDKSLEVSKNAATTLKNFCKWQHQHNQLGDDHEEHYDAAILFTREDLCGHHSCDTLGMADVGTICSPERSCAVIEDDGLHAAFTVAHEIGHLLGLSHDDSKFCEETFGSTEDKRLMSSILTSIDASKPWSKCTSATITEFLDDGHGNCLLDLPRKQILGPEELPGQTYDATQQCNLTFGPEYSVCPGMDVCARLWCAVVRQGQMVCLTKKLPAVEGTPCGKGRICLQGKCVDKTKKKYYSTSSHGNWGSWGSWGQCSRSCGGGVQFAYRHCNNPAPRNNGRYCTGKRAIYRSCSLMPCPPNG
Assay: InviLISA Aggrecanase activity assay, aggrecanase 2
Assay type: biochemical
Settings: inhibitors tested at 10 μM final concentration
Structures can show the parent of a compound that is named as a salt.
Binary call on inhibition at 10 µM: Y from 30% upward, N beneath that.

[[record]]
compound = "N=C(CC1CC1)Nc1ccc2oc(-c3ccc(O)cc3)c(O)c(=O)c2c1 [Example 11, hydrochloride]"
study_target = "recombinant human aggrecanase 2 (ADAMTS-5) (Homo sapiens)"
group_label = "Y"

[[record]]
compound = "CC(=N)Nc1ccc2oc(-c3ccc(OCc4ccccc4)cc3)c(O)c(=O)c2c1 [Example 22, hydrochloride]"
study_target = "recombinant human aggrecanase 2 (ADAMTS-5) (Homo sapiens)"
group_label = "Y"

[[record]]
compound = "CC(=N)Nc1ccc2oc(-c3ccc(O)nc3)c(O)c(=O)c2c1 [Example 21, hydrochloride]"
study_target = "recombinant human aggrecanase 2 (ADAMTS-5) (Homo sapiens)"
group_label = "N"

[[record]]
compound = "CC(=N)Nc1ccc2oc(-c3ccc4c(c3)OCO4)cc(=O)c2c1 [Example 4, hydrochloride]"
study_target = "recombinant human aggrecanase 2 (ADAMTS-5) (Homo sapiens)"
group_label = "N"

